system: tetA promoter (PtetA)-lacZ reporter in E. coli KM3; format: cell-based; details: M9 assay plates, no inducer, 84 hr at 30° C., colony color intensity by ImageJ
MEASUREMENT LABEL: Control 84 hr (colony color intensity, background activity without inducer)
Answer using only a numeral; do not append any unit.

Worked examples follow.
MOLECULE	MEASURED VALUE
L6-5H12 (protein, Sulfonylurea responsive repressor L6-5H12) MGSRLDKSKVINSALELLNEVGIEGLTTRKLAQKLGVEQPTLYWHVKNKRALLDALAIEMMDRHATHYCPLEGESWQDFLRNNAKSMRCALLSHRDGAKVCLGTRWTEKQYETAENQLAFLCQQGFSLENALYAMSAVRVFTLGCVLFDQELQVAKEERETPTTASMPPLVRQAWELKDHQGAEPAFLFGLELIICGLEKQLKCESGS	5.7
L6-5H06 (protein, Sulfonylurea responsive repressor L6-5H06) MGSRLDKSKVINSALELLNEVGIEGLTTRKLAQKLGVEQPTLYWHVKNKRALLDALAIEMMDRHQTHICPLEGESWQDFLRNNAKSMRCALLSHRDGAKVCLGTRWTEKQYETAENMLAFLCQQGFSLENALYAVSAVRVFTLGCVLFDQELQVAKEERETPTTASMPPLVRQAWELKDHQGAEPAFLFGLELIICGLEKQLKCESGS	5.1

Alright, here's another molecule for you.
Recall and state the measured Control 84 hr (colony color intensity, background activity without inducer) for L6-5F05 (protein, Sulfonylurea responsive repressor L6-5F05) MGSRLDKSKVINSALELLNEVGIEGLTTRKLAQKLGVEQPTLYWHVKNKRALLDALAIEMMDRHATHICPLEGESWQDFLRNNAKSMRCALLSHRDGAKVCLGTRWTEQQYEAAENQLAFLCQQGFSLENALYAVSAVRVFTLGCVLFDQELQVAKEERETPTTASMPPLLRQAWELKDHQGAEPAFLFGLELIICGLEKQLKCESGS .
5.4
